target: NADPH oxidase 4 (Homo sapiens); assay: compounds shifting NOX4 Amplex Red fluorescence – cell-based, HEK293-NOX4, tetracycline-induced, NOX inhibitor project, primary screen (AID 1160); conditions: HEK293-NOX4, Amplex Red H2O2 fluorescence, 45 min; higher = more signal, called active from +8 up or from −8 down
Bucketed by reported z-score, buckets being low: < -0.6; middle: ≥ -0.6 and < 0.4; high: ≥ 0.4

Worked examples follow.
COC(=O)C(CC#Cc1ccc2c(c1)[C@]1(C(=O)N2)[C@H](c2ccc(OCCO)cc2)N2[C@H](c3ccccc3)[C@H](c3ccccc3)OC(=O)[C@H]2[C@@H]1C(=O)O)C(=O)OC ... middle
O=C1OCC=C[C@H]2OC34C=CCN(CCN5CCOCC5)C(=O)[C@H]3N(CCCCCO)C(=O)[C@@H]4[C@@H]12 (stereo not given in full) ... middle
CCCc1cc2c(n1Cc1ccc(OC)cc1)C(C)C1CN(C(=O)c3ccccc3)C(C)(C(=O)OC)C21 (stereo not given) ... low
C[N+](C)(C)CCCC[C@@H]1NC(=O)[C@@H]2C[C@H](C(=O)O)[C@H](c3cccc(OCCO)c3)N2C1=O ... high
CCCCC(O)C1C=CC2C(=O)N(Cc3ccccc3)C(=O)C2N1n1cnnc1 (stereo not given) ... low

[Q] Categorize the following entry: `CCC[C@@H]1C[C@@]1(CCC)[C@@H](NC(=O)c1cccs1)c1ccc(Cl)cc1`
[A] middle

[Q] And what about the molecule `COC(=O)[C@@]1(Cc2ccc(F)cc2)[C@H]2c3cc(C(=O)N4CCCC4)n(Cc4ccccc4)c3C[C@H]2CN1C(=O)c1ccccc1` ?
[A] high

[Q] And what about the molecule `COc1ccccc1CN1C(=O)c2ccccc2[C@@H](C(=O)NCC(C)C)[C@@H]1c1ccc(CO)cc1` ?
[A] middle

[Q] And what about the molecule O=C1OCCC=C[C@H]2OC34C=CCN(Cn5nnc6ccccc65)C(=O)[C@H]3N(CCCCCO)C(=O)[C@@H]4C12 (stereo not given in full) ?
[A] middle

[Q] And what about the molecule `C[N+](C)(C)CCCCCCNC(=O)[C@@H]1C[C@@H]2C(=O)NCC(=O)N2[C@@H]1c1cccc(OCCO)c1` ?
[A] low

[Q] And what about the molecule `COc1ccc(C(=O)Nc2ccc(CN3C(=O)[C@]4(O[C@H](CCn5cc([C@H](O)c6ccccc6)nn5)[C@@H]([Si](C)(C)c5ccc(OC)cc5)[C@@H]4C)c4ccccc43)cc2)cc1` ?
[A] middle

[Q] And what about the molecule C=CC[C@@]1(C(=O)NCC(O)CO)N=C(c2ccc(OCCCO)cc2)O[C@@H]1c1ccccc1 (stereo not given in full) ?
[A] high

[Q] And what about the molecule `COc1ccc([Si](C)(C)[C@@H]2[C@@H](CC(=O)N3Cc4ccccc4C[C@H]3CO)O[C@]3(C(=O)N(Cc4cccc(N5CCCCC5=O)c4)c4ccccc43)[C@H]2C)cc1` ?
[A] middle

[Q] And what about the molecule `C=CCN1C(=O)[C@@]2(O[C@@H](CCO)[C@H]([Si](C)(C)c3ccc(OC)cc3)[C@H]2C)c2cc(NC(=O)[C@H](C)O)ccc21` ?
[A] high

====

z-score values, listed per item
assay: growth modulation of vineyard yeast isolate – strain RM11-1a, OD600, basal, 24 h, primary screen (AID 1177);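 note: cultures grown under basal conditions with no added stressor; test concentration not given here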; conditions: S. cerevisiae RM11-1a growth, OD600, 24 h; higher = more signal, called active from +8 up or from −8 down
The answer should be a number; do not append a unit.

Below are worked cases with known answers.
COCCOC(=O)N1C(=O)[C@@]2(c3cc(C#CCC(C(=O)OC)C(=O)OC)ccc31)[C@H](c1ccc(OCCO)cc1)N1[C@H](c3ccccc3)[C@H](c3ccccc3)OC(=O)[C@H]1[C@@H]2C(N)=O ... 2.34
O=C1C2C=CC(C(O)c3ccc(Br)cc3)N(Nc3ccccc3)C2C(=O)N1c1ccccc1 (configuration not stated) ... 0.501
C[C@@H]1ON(c2ccccc2)[C@H](c2ccccc2)[C@H]1C(=O)N1C(=O)OC[C@H]1Cc1ccccc1 ... 1.39
CCCCCCCCCCC(O)C1C=CC2C(=O)NC(=O)C2N1Nc1ccccn1 (configuration not stated) ... -5.05

[Q] Sample `O=C1N(CCS(=O)(=O)c2ccccc2)c2ccccc2[C@H]2OC(c3ccc(OCCCO)cc3)=N[C@@]12CCS(=O)(=O)c1ccccc1` — what was its z-score?
[A] 3.96

[Q] And what about the compound `C[N+](C)(C)CCCCCCNC(=O)[C@H]1C[C@H]2C(=O)N3CCC[C@H]3C(=O)N2[C@H]1c1cccc(OCCO)c1` ?
[A] -0.637

[Q] And what about the compound `Cc1ccc(S[C@]2(C(=O)NCC(C)C)CC(=O)N(C3CCCCC3)[C@@H]2c2ccc(CO)cc2I)cc1` ?
[A] -0.115

====

experiment: small molecules captured by biotinylated probe aFST – biochemical, small-molecule microarray, fluorescence 635/667, stem cell growth factor project, primary screen (AID 1086); settings: higher = more signal;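 note: score merges 667 nm fluorescence with signal-to-noise of each printed compound spot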
composite z-score values, listed per item
The answer should be a number; do not append a unit.

Below are worked cases with known answers.
COCCCNC(=O)[C@@H]1c2ccccc2C(=O)N(c2ccc(C)cn2)[C@H]1c1ccc(CO)cc1 ... -0.939
C=CCOC(=O)[C@H]1[C@@H]2C(=O)O[C@@H](c3ccccc3)[C@@H](c3ccccc3)N2[C@@H](c2ccc(OCCOC(=O)[C@H]3C[C@H]4C(=O)N[C@@H](CCCCN(C)C)C(=O)N4[C@H]3c3ccc(O)cc3)cc2)[C@]12C(=O)Nc1ccccc12 ... 0.86
COCCOC(=O)N1C(=O)[C@@]2(c3ccccc31)[C@H](c1ccccc1OCCO)N1[C@H](c3ccccc3)[C@H](c3ccccc3)OC(=O)[C@H]1[C@@H]2C(=O)N1CCc2cc(OC)c(OC)cc2C1 ... 0.356
COC(=O)[C@@]1(Cc2ccc(OC)cc2)[C@H]2c3cc(C(=O)N(C)C)n(CCF)c3C[C@H]2CN1C(=O)c1ccccc1 ... 0.98

[Q] Sample COC(=O)c1ccc(OC)c(/C=C\CC(CCc2ccccc2)OC(C)=O)c1 (stereo unspecified) — what was its composite z-score?
[A] -0.458

[Q] And what about the molecule O=C1C2C=CC(C(O)c3cccc4ccccc34)N(Nc3ccccc3)C2C(=O)N1c1ccccc1 (stereo unspecified) ?
[A] 1.55

====

assay: changes in parasitized red cell lysis, either direction – P. falciparum Indochina, OD700, 3 h, PSAC antagonist project, primary screen (AID 1156); conditions: P. falciparum-infected erythrocytes, osmotic lysis, higher = more signal, called active from +8 up or from −8 down
z-score values, listed per item
The answer should be a number; do not append a unit.

Below are worked cases with known answers.
COC(=O)[C@@]1(Cc2ccc(F)cc2)[C@H]2c3cc(C(=O)N(C)C)n(CCSCCO)c3C[C@H]2CN1C(=O)c1ccccc1 ... -0.662
Cc1ccc(C(C)CC(O)C2C=CC3C(=O)N(Cc4ccccc4)C(=O)C3N2n2cnnc2)o1 (centres undefined) ... 0.809

[Q] Sample `COCCCNC(=O)[C@@]1(Cc2ccccc2N=[N+]=[N-])N=C(c2ccc(OCCCO)cc2)O[C@H]1c1ccccc1CN=[N+]=[N-]` — what was its z-score?
[A] 2.41

[Q] And what about the compound `C=C[C@@H](O)[C@H]1CC(c2ccccc2)=NO1` ?
[A] -0.112

====

biological target: Homeobox protein Hox-A13 (Mus musculus) (UniProt Q62424); assay: disruptors of Hoxa13 oligonucleotide interaction – biochemical, fluorescence polarization, labeled oligonucleotide, primary screen (AID 1185); conditions: Hoxa13:DNA binding, 15 min, higher = more signal, called active from +8 up or from −8 down
Sequence (Q62424 whole entry, looked up): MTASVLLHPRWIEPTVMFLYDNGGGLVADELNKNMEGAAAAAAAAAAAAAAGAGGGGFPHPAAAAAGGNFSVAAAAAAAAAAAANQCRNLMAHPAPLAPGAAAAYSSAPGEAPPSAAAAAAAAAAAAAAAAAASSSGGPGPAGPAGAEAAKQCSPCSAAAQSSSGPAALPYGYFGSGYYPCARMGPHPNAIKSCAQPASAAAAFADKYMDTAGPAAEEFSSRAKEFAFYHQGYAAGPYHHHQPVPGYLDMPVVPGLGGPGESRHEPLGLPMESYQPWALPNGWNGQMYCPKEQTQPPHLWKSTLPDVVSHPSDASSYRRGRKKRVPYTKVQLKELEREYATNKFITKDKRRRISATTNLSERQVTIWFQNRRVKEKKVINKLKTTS
Activity calls are given as the source filed them.
RESULT TYPE: z-score

Below are worked cases with known answers.
CC(C)C(CO)N1C(=O)[C@@H]2[C@H]3C(=O)OCC=C[C@H]3OC23C=CCN(CCN2CCOCC2)C(=O)[C@@H]13 (stereo partly specified) ... -4.54 (inactive)
O=C1c2ccccc2[C@](Cc2ccccc2I)(C(=O)NCC(F)(F)F)[C@H](c2ccc(CO)cc2)N1Cc1ccccc1 ... -4.04 (inactive)
CCCC=C(CCC)[C@@H](NS(=O)(=O)CC)c1ccccc1 ... -0.298 (inactive)
COC(=O)C(CC#Cc1ccc2c(c1)[C@]1(C(=O)N2)[C@H](c2ccc(O)cc2)N2[C@H](c3ccccc3)[C@H](c3ccccc3)OC(=O)[C@H]2[C@@H]1C(=O)O)C(=O)OC ... -6.45 (inactive)
C/C=C/[C@@H](CCn1cc([C@H](O)c2ccccc2)nn1)[Si](C)(C)c1ccc(OC)cc1 ... -6.33 (inactive)
O=C1N(CCS(=O)(=O)c2ccccc2)Cc2ccccc2C[C@@]12COC(c1ccc(OCCCO)cc1)=N2 ... -4.6 (inactive)

[Q] Sample `COC(=O)[C@@]1(Cc2ccc(OC)cc2)[C@H]2c3cc(C(=O)N(C)C)n(CCF)c3C[C@H]2CN1C(=O)c1ccccc1` — what was its z-score?
[A] -3.59 (inactive)

[Q] And what about the molecule `COCCOC(=O)N1C(=O)[C@@]2(c3cc(C#CCCO)ccc31)[C@H](C(=O)NC[C@H](O)c1ccccc1)[C@H]1C(=O)O[C@H](c3ccccc3)[C@H](c3ccccc3)N1[C@@H]2c1ccccc1OCCO` ?
[A] -2.38 (inactive)

[Q] And what about the molecule C=CCC(OC(C)=O)[C@@H]1[C@@H](N(Cc2cccc3ccccc23)C(=O)c2ccc(C)cc2)c2cc(OCCCO)ccc2N1C(=O)c1ccc2ccccc2c1 (stereo partly specified) ?
[A] -0.0802 (inactive)

[Q] And what about the molecule `O=C1O[C@H](c2ccccc2)[C@H](c2ccccc2)N2[C@H]1[C@@H](C(=O)NC[C@H](O)c1ccccc1)[C@]1(C(=O)Nc3ccccc31)[C@H]2c1ccccc1OCCO` ?
[A] -3.48 (inactive)

[Q] And what about the molecule CC(C)c1ccc(NN2C(C(O)c3cccs3)C=CC3C(=O)N(c4ccccc4)C(=O)C32)cc1 (stereo unspecified) ?
[A] -3.33 (inactive)

[Q] And what about the molecule `C=CCN1C(=O)[C@@]2(O[C@@H](CCn3cc([C@H](O)c4ccccc4)nn3)[C@H]([Si](C)(C)c3ccc(OC)cc3)[C@H]2C)c2cc(NC(=O)c3ccc(OC)cc3)ccc21` ?
[A] -4.41 (inactive)

[Q] And what about the molecule `O=C1O[C@@H](c2ccccc2)[C@@H](c2ccccc2)N2[C@@H](c3ccc(O)cc3)[C@]3(C(=O)Nc4ccc(C#CC5(O)CCCCCC5)cc43)[C@@H](C(=O)N3CCN(c4ncccn4)CC3)[C@H]12` ?
[A] -1.72 (inactive)

[Q] And what about the molecule N#Cc1ccc(NN2C(C(O)c3ccco3)C=CC3C(=O)N(c4ccccc4)C(=O)C32)cc1 (stereo unspecified) ?
[A] -1.96 (inactive)

[Q] And what about the molecule C=CCC(OC(C)=O)[C@@H]1[C@@H](N(Cc2cc3ccccc3o2)C(=O)Cc2ccc(OC)cc2)c2cc(OCCCO)ccc2N1C(=O)c1ccc(-c2ccccc2)cc1 (stereo partly specified) ?
[A] -1.11 (inactive)

[Q] And what about the molecule `COC(=O)[C@@]1(Cc2ccc(OC)cc2)[C@H]2c3cc(C(=O)N4CCCC4)n(CCc4ccc(O)c(OC)c4)c3C[C@H]2CN1C(=O)c1ccccc1` ?
[A] -4.35 (inactive)

[Q] And what about the molecule `COC(=O)[C@@]1(Cc2ccc(OC)cc2)[C@H]2c3cc(C(=O)N4CCCC4)n(CCF)c3C[C@H]2CN1C(=O)c1ccccc1` ?
[A] -5.44 (inactive)

[Q] And what about the molecule `CCCCC(=C=CC[C@H](O)c1ccccc1OCCO)C[C@H](O)c1ccccn1` ?
[A] -3.35 (inactive)

[Q] And what about the molecule CC(C)(C)N1CC=CC23O[C@@H]4C=CCCOC(=O)C4[C@H]2C(=O)N(CCCO)[C@@H]3C1=O (stereo partly specified) ?
[A] -5.86 (inactive)

[Q] And what about the molecule `COCCOC(=O)N1C(=O)[C@@]2(c3cc(C#Cc4ccc(OC)cc4)ccc31)[C@H](C(=O)N1CCc3cc(OC)c(OC)cc3C1)[C@H]1C(=O)O[C@H](c3ccccc3)[C@H](c3ccccc3)N1[C@@H]2c1ccc(O)cc1` ?
[A] -0.63 (inactive)

[Q] And what about the molecule O=C1c2ccccc2C(=O)C2CC([C@H]3Oc4ccccc4S(=O)(=O)N4CCC[C@@H]34)=CCC12 (stereo partly specified) ?
[A] -1.77 (inactive)
